target: Death-associated protein kinase 1 (Homo sapiens) (UniProt P53355); settings: at 1 µM
Sequence (P53355 whole entry, looked up): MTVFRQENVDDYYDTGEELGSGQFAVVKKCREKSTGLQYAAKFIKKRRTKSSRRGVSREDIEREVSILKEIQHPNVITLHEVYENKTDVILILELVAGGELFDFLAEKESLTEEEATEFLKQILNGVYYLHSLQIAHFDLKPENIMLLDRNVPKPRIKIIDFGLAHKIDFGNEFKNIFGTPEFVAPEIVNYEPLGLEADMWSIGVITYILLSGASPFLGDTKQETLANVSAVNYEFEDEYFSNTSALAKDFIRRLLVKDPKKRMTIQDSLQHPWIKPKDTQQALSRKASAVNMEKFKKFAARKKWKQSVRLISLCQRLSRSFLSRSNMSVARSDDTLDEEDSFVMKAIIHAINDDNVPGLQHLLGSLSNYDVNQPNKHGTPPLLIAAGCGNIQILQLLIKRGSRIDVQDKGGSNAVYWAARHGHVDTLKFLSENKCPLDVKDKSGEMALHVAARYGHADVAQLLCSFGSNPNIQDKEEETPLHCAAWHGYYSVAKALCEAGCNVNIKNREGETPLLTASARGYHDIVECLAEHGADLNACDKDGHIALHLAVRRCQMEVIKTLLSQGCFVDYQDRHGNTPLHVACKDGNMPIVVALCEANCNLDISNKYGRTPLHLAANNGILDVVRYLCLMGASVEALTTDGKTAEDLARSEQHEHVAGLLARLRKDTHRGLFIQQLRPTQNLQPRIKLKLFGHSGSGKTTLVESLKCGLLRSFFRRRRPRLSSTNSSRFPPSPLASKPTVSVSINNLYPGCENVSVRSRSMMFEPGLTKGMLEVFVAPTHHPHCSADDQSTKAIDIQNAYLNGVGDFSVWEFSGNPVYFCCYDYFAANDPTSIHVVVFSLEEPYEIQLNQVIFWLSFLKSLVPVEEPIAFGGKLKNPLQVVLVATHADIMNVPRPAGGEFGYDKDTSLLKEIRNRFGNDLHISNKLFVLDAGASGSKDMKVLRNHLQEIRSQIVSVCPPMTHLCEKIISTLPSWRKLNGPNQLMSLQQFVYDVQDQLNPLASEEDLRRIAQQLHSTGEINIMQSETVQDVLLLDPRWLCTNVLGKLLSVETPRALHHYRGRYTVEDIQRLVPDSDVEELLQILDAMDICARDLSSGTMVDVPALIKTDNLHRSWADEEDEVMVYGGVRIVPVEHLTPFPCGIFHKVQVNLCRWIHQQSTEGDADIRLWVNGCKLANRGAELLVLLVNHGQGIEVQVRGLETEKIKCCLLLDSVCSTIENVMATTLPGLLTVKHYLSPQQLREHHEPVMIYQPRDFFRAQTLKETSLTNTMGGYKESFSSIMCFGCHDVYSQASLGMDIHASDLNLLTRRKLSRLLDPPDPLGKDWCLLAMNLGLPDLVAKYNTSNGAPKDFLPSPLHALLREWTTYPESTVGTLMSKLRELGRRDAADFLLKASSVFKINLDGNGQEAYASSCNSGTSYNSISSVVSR
// values below are reported residual activity
Express your answer as a number followed by its unit.

Chem smiles	residual activity
COc1cc2ncnc(Nc3ccc(O)c(Br)c3)c2cc1OC	88%

Task: Determine its reported residual activity: `COc1cc2ncnc(N3CCN(C(=O)Nc4ccc(Oc5ccccc5)cc4)CC3)c2cc1OC`
Output: 90%

Task: Determine its reported residual activity: `CC#CC(=O)Nc1cc2c(Nc3ccc(F)c(Cl)c3)ncnc2cn1`
Output: 88%

Entry source: ChEMBL document CHEMBL2218924
